experiment: Biodistribution of GAE in liver, kidney, heart, spleen and brain after oral administration; assay type: in vivo, mice; conditions: male, C57BL/6, mouse, heart, po, 200 mg/kg, GAE treated animals; 1 h; 200 mg/kg b.wt oral; read-out: GAE concentration in the heart
Measure: concentration at 1 h (ng/g)
Give bare numbers, in ng/g.

GET /values?readout=concentration at 1 h&item= CCOC(=O)c1cc(O)c(O)c(O)c1 [GAE, Ethyl 3,4,5-trihydroxybenzoate]
216

====

assay: Stability of GAE in mice plasma and liver homogenate (QC samples); type: in vitro ADME; conditions: mouse; plasma; 250 ng/mL; three consecutive freeze thaw cycles (−20 °C to room temperature)
Measure: freeze-thaw stability (fraction remaining) at 250 ng/mL
One number for each entry.

GET /values?readout=freeze-thaw stability (fraction remaining) at 250 ng/mL&item= CCOC(=O)c1cc(O)c(O)c(O)c1 [GAE, Ethyl 3,4,5-trihydroxybenzoate]
0.901
